Please respond with reported pEC50 for every item in the list.
- study.system: hGLP-1R (Homo sapiens)
- Sequence (P43220 24-463): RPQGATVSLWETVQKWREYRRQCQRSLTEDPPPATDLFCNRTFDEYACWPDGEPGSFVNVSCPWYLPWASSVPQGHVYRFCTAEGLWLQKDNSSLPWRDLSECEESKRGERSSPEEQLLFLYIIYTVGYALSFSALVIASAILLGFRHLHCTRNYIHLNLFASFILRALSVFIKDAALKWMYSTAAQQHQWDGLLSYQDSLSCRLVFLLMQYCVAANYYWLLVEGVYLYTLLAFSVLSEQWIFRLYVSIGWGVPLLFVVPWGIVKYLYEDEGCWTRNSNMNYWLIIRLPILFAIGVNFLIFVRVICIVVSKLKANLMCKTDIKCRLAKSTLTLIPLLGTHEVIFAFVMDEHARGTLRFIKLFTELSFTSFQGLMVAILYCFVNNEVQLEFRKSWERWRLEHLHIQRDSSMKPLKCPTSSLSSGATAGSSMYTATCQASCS
- experiment: Functional cAMP activity in the presence of 1% HSA
- Format: cell-based
- condition.parameters: read-out: cAMP Rel EC50, hGLP-1R
Starred links: 1 amine or outer side, 2 acyl side, 3 side chain; linkers in the order of their positions; H or OH if unused. Non-standard residues stand in square brackets, D forms with d. Groups on a side chain read outwards from the residue. No end group written: not given here. *: point of attachment. C20 diacid = O=C(O)CCCCCCCCCCCCCCCCCCC(=O)*; C18 diacid = O=C(O)CCCCCCCCCCCCCCCCC(=O)*; Phe(4-CN) = N#Cc1ccc(C[C@H](N)C(=O)O)cc1; αMePhe(2-F) = C[C@](N)(Cc1ccccc1F)C(=O)O; γGlu = O=C(O)[C@H](CCC(=O)[*:2])N[*:1]; αMe4Pal = C[C@](N)(Cc1ccncc1)C(=O)O; αMeY = C[C@](N)(Cc1ccc(O)cc1)C(=O)O; 4Pal = N[C@@H](Cc1ccncc1)C(=O)O; αMeL = CC(C)C[C@](C)(N)C(=O)O; αMeS = C[C@](N)(CO)C(=O)O; Orn = NCCC[C@H](N)C(=O)O; AEEA = NCCOCCOCC(=O)O; Aib = CC(C)(N)C(=O)O
# pEC50: negative log10 of molar concentration; output just the value

Measured pEC50, Y[Aib]QGT[αMePhe(2-F)]TSD[4Pal][αMeS]I[αMeL]LD[Orn]K([γGlu-γGlu-C18 diacid])AA[Aib]EFI[dE][αMeY]LIEGGPSSGEPPPSGGGE-NH2 [Example 748] : 7.64

Measured pEC50, H-Y[Aib]QGTFTSD[4Pal]SR[αMeL]LDKK([AEEA-γGlu-C18 diacid])AQ[Aib]AFIEYLLE[Aib]GPSSGAPPPSGE-NH2 [Example 114] : 5.86

Measured pEC50, Y[Aib]QGTFTSD[4Pal]SK[αMeL]LDKK([AEEA-γGlu-C18 diacid])AQ[Aib]AFIEYLIE[Aib]GESSGEPPPSGE-NH2 [Example 281] : 6.53

Measured pEC50, H-Y[Aib]QGT[αMePhe(2-F)]TSD[4Pal][αMeS]ILLD[Orn]K([γGlu-γGlu-C18 diacid])AQ[Aib][Orn]FI[dE]YLIEGGPSSGEPPPSGTE-NH2 [Example 531] : 7.42

Measured pEC50, H-Y[Aib]QGTFTSDYSK[αMeL]LDKK([AEEA-γGlu-C20 diacid])AQQAFIQWLIEGGPSSGEPPPSEG-NH2 [Example 314] : 7.00

Measured pEC50, H-Y[Aib]QGT[αMePhe(2-F)]TSDY[αMeS]I[αMeL]LD[Orn]K([AEEA-γGlu-C18 diacid])AQ[Aib][Orn]FI[dE][αMeY]LEEGGPSSGEPPPEEG-NH2 [Example 403] : 7.15

Measured pEC50, Y[Aib]QGTFTSD[4Pal]SQ[αMeL]LDKK([dE-γGlu-C18 diacid])AQ[αMe4Pal]AFIEYLIE[Aib]GPSSGAPPPSGSE-NH2 [Example 924] : 6.40

Measured pEC50, H-Y[Aib]QGTFTSD[4Pal][αMeS]Q[αMeL]LD[Orn]K([dE-γGlu-C18 diacid])AQ[αMe4Pal]QFIQ[αMeY]LLE[Aib]GPSSGAPPPSGGGE-NH2 [Example 1138] : 6.79

Measured pEC50, H-Y[Aib]QGT[αMePhe(2-F)]TSDYSKLLDKIAQK([AEEA-γGlu-C18 diacid])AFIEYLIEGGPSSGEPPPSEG-NH2 [Example 330] : 7.04

Measured pEC50, H-Y[Aib]QGTFTSD[Phe(4-CN)]S[Orn][αMeL]LDKK([AEEA-γGlu-C18 diacid])AQ[Aib]AFIEYLLE[Aib]GPSSGAPPPSGS-NH2 [Example 191] : 6.64

Measured pEC50, Y[Aib]QGTFTSD[4Pal]SQ[αMeL]LDKK([dE-γGlu-C18 diacid])AQ[αMe4Pal]AFIEYLIE[Aib]GPSSGAPPPSGSEE-NH2 [Example 928] : 6.22
